- Test system: 633275-114-R-J1-PDC complex spheroids, viability
- assay-explanation: Anticancer human tumor 633275-114-R-J1-PDC patient-derived endometrial adenocarcinoma cell line growth inhibition [GQUAD]
- test-parameters: second compound 3.16 µM; first compound 10 µM; stronger effect = lower value
Note that class boundaries on viability, T/C are zone 1 = under 10%, zone 2 = from 10% up to 30%, zone 3 = 30% and over

Consider the worked cases shown below.
>>> label("COc1ncnc(C2CC2)c1-c1ncc2cnn(Cc3ccc(-c4nc(C(F)(F)F)cn4C(C)C)cc3)c2n1 + Cc1[nH]c2ccc(F)cc2c1-c1nc2c3cccnc3c3ncccc3c2[nH]1")
"zone 3"
>>> label("CC1COCCN1c1cc(C2(S(C)(=N)=O)CC2)nc(-c2ccnc3[nH]ccc23)n1 (stereo not given) + CN(C)c1ccc(Nc2c3ccc(NC(=O)CCN4CCCC4)cc3nc3cc(NC(=O)CCN4CCCC4)ccc23)cc1")
"zone 3"
>>> label("CC(=O)O[C@H]1C(=O)[C@@]2(C)[C@H]([C@H](OC(=O)c3ccccc3)[C@]3(O)C[C@H](OC(=O)[C@H](O)[C@@H](NC(=O)c4ccccc4)c4ccccc4)C(C)=C1C3(C)C)[C@]1(OC(C)=O)CO[C@@H]1C[C@@H]2O + Cc1cnc(CNC(=O)c2c(=O)c3ccc(N4CCCN(C)CC4)nc3n3c2sc2ccccc23)cn1")
"zone 3"
>>> label("COc1cc(C2c3cc4c(cc3C(OC3OC5COC(C)OC5C(O)C3O)C3COC(=O)C23)OCO4)cc(OC)c1O (stereo not given) + Cc1cnc(CNC(=O)c2c(=O)c3ccc(N4CCCN(C)CC4)nc3n3c2sc2ccccc23)cn1")
"zone 2"
>>> label("O=C(c1cc(Cc2n[nH]c(=O)c3ccccc23)ccc1F)N1CCN(C(=O)C2CC2)CC1 + CN(C)c1ccc(Nc2c3ccc(NC(=O)CCN4CCCC4)cc3nc3cc(NC(=O)CCN4CCCC4)ccc23)cc1")
"zone 3"

Band for COc1cccc2c1C(=O)c1c(O)c3c(c(O)c1C2=O)CC(O)(C(=O)CO)CC3OC1CC(N)C(O)C(C)O1 (stereo not given) + CN(C)c1ccc(Nc2c3ccc(NC(=O)CCN4CCCC4)cc3nc3cc(NC(=O)CCN4CCCC4)ccc23)cc1 ? zone 1

Into which category would you place C#Cc1c(F)ccc2cc(O)cc(-c3ncc4c(N5CC6CCC(C5)N6)nc(OCC56CCCN5CC(F)C6)nc4c3F)c12 (stereo not given) + Cc1cnc(CNC(=O)c2c(=O)c3ccc(N4CCCN(C)CC4)nc3n3c2sc2ccccc23)cn1 ? zone 2

Would you mind sorting O=c1[nH]cc(F)c(=O)[nH]1 + Cc1cnc(CNC(=O)c2c(=O)c3ccc(N4CCCN(C)CC4)nc3n3c2sc2ccccc23)cn1 into the appropriate category? zone 3

GET /class?item= C=CCn1c(=O)c2cnc(Nc3ccc(N4CCN(C)CC4)cc3)nc2n1-c1cccc(C(C)(C)O)n1 + Cc1[nH]c2ccc(F)cc2c1-c1nc2c3cccnc3c3ncccc3c2[nH]1 zone 2

Returns: class label. Input: CC(C)(O)C1CCC(Nc2ccc3ncc(-c4cccc(C(F)(F)F)c4)n3n2)CC1 (stereo not given) + Cc1[nH]c2ccc(F)cc2c1-c1nc2c3cccnc3c3ncccc3c2[nH]1 zone 2

Bin? COc1ccc([C@@H](O)c2cc(-c3ncnc4cc(N5CCOCC5)ccc34)c(F)cc2Cl)nn1 + Cc1cnc(CNC(=O)c2c(=O)c3ccc(N4CCCN(C)CC4)nc3n3c2sc2ccccc23)cn1 zone 2

Category of C#Cc1c(F)ccc2cc(O)cc(-c3ncc4c(N5CC6CCC(C5)N6)nc(OCC56CCCN5CC(F)C6)nc4c3F)c12 (stereo not given) + Cc1[nH]c2ccc(F)cc2c1-c1nc2c3cccnc3c3ncccc3c2[nH]1 , please. zone 3

Class? Entry: CC1COCCN1c1cc(-c2ccnn2C)c2ccnc(-c3ccn[nH]3)c2n1 (stereo not given) + CN(C)c1ccc(Nc2c3ccc(NC(=O)CCN4CCCC4)cc3nc3cc(NC(=O)CCN4CCCC4)ccc23)cc1 zone 2

Looking at COc1cc(C2c3cc4c(cc3C(OC3OC5COC(C)OC5C(O)C3O)C3COC(=O)C23)OCO4)cc(OC)c1O (stereo not given) + Cc1[nH]c2ccc(F)cc2c1-c1nc2c3cccnc3c3ncccc3c2[nH]1 , which class would you pick? zone 2

# bin lookup: classify CC(C)n1c(=O)n(C)c2cnc3cc(F)c(-c4ccc(OCCCN5CCCCC5)nc4)cc3c21 + Cc1[nH]c2ccc(F)cc2c1-c1nc2c3cccnc3c3ncccc3c2[nH]1 by its viability, T/C zone 3

* * *

Record form. Attribute: viability, T/C. Fill in for each entry.
- Test system: 633275-114-R-J1-PDC complex spheroids, viability
- assay-explanation: Anticancer human tumor 633275-114-R-J1-PDC cell line growth inhibition [GQUAD];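 note: spheroids exposed to the agents for seven days; percent of DMSO vehicle control viability which is 100%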
- test-parameters: second compound 0.316 µM; first compound 10 µM; stronger effect = lower value
One number for each entry, in %.

>>> measured_value("COc1ccc([C@@H](O)c2cc(-c3ncnc4cc(N5CCOCC5)ccc34)c(F)cc2Cl)nn1 + CN(C)c1ccc(Nc2c3ccc(NC(=O)CCN4CCCC4)cc3nc3cc(NC(=O)CCN4CCCC4)ccc23)cc1")
30.9
>>> measured_value("COc1cc(C2c3cc4c(cc3C(OC3OC5COC(C)OC5C(O)C3O)C3COC(=O)C23)OCO4)cc(OC)c1O (stereo not drawn) + Cc1[nH]c2ccc(F)cc2c1-c1nc2c3cccnc3c3ncccc3c2[nH]1")
31.3

Please turn your attention to the following entry.
What value of viability, T/C has been reported for the following compound? COc1ccc([C@@H](O)c2cc(-c3ncnc4cc(N5CCOCC5)ccc34)c(F)cc2Cl)nn1 + Cc1[nH]c2ccc(F)cc2c1-c1nc2c3cccnc3c3ncccc3c2[nH]1 35.1

* * *

Exercise: state measured viability, T/C for each of the compounds provided.
- Test system: 633275-114-R-J1-PDC complex spheroids, viability
- assay-explanation: Anticancer human tumor 633275-114-R-J1-PDC cell line growth inhibition [GQUAD];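 note: spheroids exposed to the agents for seven days; percent of DMSO vehicle control viability which is 100%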
- test-parameters: second compound 10 µM; first compound 0.1 µM; stronger effect = lower value
Give bare numbers, in %.

>>> measured_value("CC(C)(O)C1CCC(Nc2ccc3ncc(-c4cccc(C(F)(F)F)c4)n3n2)CC1 (stereo not given) + Cc1cnc(CNC(=O)c2c(=O)c3ccc(N4CCCN(C)CC4)nc3n3c2sc2ccccc23)cn1")
33.9
>>> measured_value("COc1cc(C2c3cc4c(cc3C(OC3OC5COC(C)OC5C(O)C3O)C3COC(=O)C23)OCO4)cc(OC)c1O (stereo not given) + CN(C)c1ccc(Nc2c3ccc(NC(=O)CCN4CCCC4)cc3nc3cc(NC(=O)CCN4CCCC4)ccc23)cc1")
19.9
>>> measured_value("Cc1cccc(N(C)C(=O)C2C(O)CCN2c2nc(C)cc(C(F)(F)F)c2C#N)c1 (stereo not given) + Cc1cnc(CNC(=O)c2c(=O)c3ccc(N4CCCN(C)CC4)nc3n3c2sc2ccccc23)cn1")
33.9

Please give viability, T/C for each item listed below.
1. C=CC(=O)N1CCN(c2nc(=O)n(-c3c(C)ccnc3C(C)C)c3nc(-c4c(O)cccc4F)c(F)cc23)C(C)C1 (stereo not given) + Cc1[nH]c2ccc(F)cc2c1-c1nc2c3cccnc3c3ncccc3c2[nH]1
2. COc1ncnc(C2CC2)c1-c1ncc2cnn(Cc3ccc(-c4nc(C(F)(F)F)cn4C(C)C)cc3)c2n1 + Cc1[nH]c2ccc(F)cc2c1-c1nc2c3cccnc3c3ncccc3c2[nH]1

[71.8, 63.1]

* * *

- Test system: 633275-114-R-J1-PDC complex spheroids, viability
- assay-explanation: Anticancer human tumor 633275-114-R-J1-PDC cell line growth inhibition [GQUAD];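 note: spheroids exposed to the agents for seven days; percent of DMSO vehicle control viability which is 100%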
- test-parameters: second compound 10 µM; first compound 0.1 µM; stronger effect = lower value
- Description: DNA G-quadruplex Stabilizer Agents in Combinations in Complex Spheroids A high-throughput screen of multi-cell type tumor spheroids was designed to identify active combinations of DNA G-quadruplex stabilizer agents and targeted small molecules. […] Compounds. […] If the clinical Cmax for an agent had not been determined, the highest concentration tested was 10 microM. […]
metric: viability, T/C (%)
One number for each entry, in %.

Here is how some molecules turned out for viability, T/C.
>>> measured_value("COc1cc(C2c3cc4c(cc3C(OC3OC5COC(C)OC5C(O)C3O)C3COC(=O)C23)OCO4)cc(OC)c1O (stereo unspecified) + Cc1[nH]c2ccc(F)cc2c1-c1nc2c3cccnc3c3ncccc3c2[nH]1")
56.4
>>> measured_value("Nc1ccn(C2OC(CO)C(O)C2(F)F)c(=O)n1 (stereo unspecified) + Cc1cnc(CNC(=O)c2c(=O)c3ccc(N4CCCN(C)CC4)nc3n3c2sc2ccccc23)cn1")
22.3
>>> measured_value("C=CCn1c(=O)c2cnc(Nc3ccc(N4CCN(C)CC4)cc3)nc2n1-c1cccc(C(C)(C)O)n1 + Cc1cnc(CNC(=O)c2c(=O)c3ccc(N4CCCN(C)CC4)nc3n3c2sc2ccccc23)cn1")
20.5

Please state, for each entry, its recorded viability, T/C.
1. CC(C)n1c(=O)n(C)c2cnc3cc(F)c(-c4ccc(OCCCN5CCCCC5)nc4)cc3c21 + CN(C)c1ccc(Nc2c3ccc(NC(=O)CCN4CCCC4)cc3nc3cc(NC(=O)CCN4CCCC4)ccc23)cc1
2. C=CC(=O)N1CCN(c2nc(=O)n(-c3c(C)ccnc3C(C)C)c3nc(-c4c(O)cccc4F)c(F)cc23)C(C)C1 (stereo unspecified) + Cc1cnc(CNC(=O)c2c(=O)c3ccc(N4CCCN(C)CC4)nc3n3c2sc2ccccc23)cn1
3. COc1ncnc(C2CC2)c1-c1ncc2cnn(Cc3ccc(-c4nc(C(F)(F)F)cn4C(C)C)cc3)c2n1 + CN(C)c1ccc(Nc2c3ccc(NC(=O)CCN4CCCC4)cc3nc3cc(NC(=O)CCN4CCCC4)ccc23)cc1
4. COc1ccc([C@@H](O)c2cc(-c3ncnc4cc(N5CCOCC5)ccc34)c(F)cc2Cl)nn1 + CN(C)c1ccc(Nc2c3ccc(NC(=O)CCN4CCCC4)cc3nc3cc(NC(=O)CCN4CCCC4)ccc23)cc1
5. Nc1ccn(C2OC(CO)C(O)C2(F)F)c(=O)n1 (stereo unspecified) + Cc1[nH]c2ccc(F)cc2c1-c1nc2c3cccnc3c3ncccc3c2[nH]1

28.8
34.1
30.2
34.8
24.5
